target: T1, human claudin 18 splice variant 2 (CLDN18.2) (human); test: flow cytometry (Table 6); APC-conjugated secondary antibody; binding assay 1
T1 construct: also called claudin 18 isotype 2
List of EC50 values.

binder	EC50 (µg/mL)
chim mAB308 (antibody, V domains shown) VH: QVQLQQSGPELVKPGASVKMSCKASGYTFTDYVISWVKQRTGQGLEWIGEIYPGSGSTYYNEKFKGKATLTADKSSNTAYMQLSSLTSEDSAVYFCARGVLLRAMDYWGQGTSVTVSS VL: DIVMSQSPSSLAVSAGEKVTMSCKSSQSLLNSRTRKNYLAWYQQKPGQSPKLLIYWASTRESGVPDRFTGSGSGTDFTLTISSVQAEDLAVYYCKQSYNLYTFGGGTKLEIKR	18.9
IMAB362 (antibody, V domains shown, Chimeric human IgG1 kappa; CDR1 at 45-52); also called chim mAb362; chim mAB362) VH: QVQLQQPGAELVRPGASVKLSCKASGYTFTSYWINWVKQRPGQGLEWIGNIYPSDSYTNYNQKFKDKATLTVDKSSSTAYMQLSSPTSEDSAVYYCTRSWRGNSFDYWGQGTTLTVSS VL: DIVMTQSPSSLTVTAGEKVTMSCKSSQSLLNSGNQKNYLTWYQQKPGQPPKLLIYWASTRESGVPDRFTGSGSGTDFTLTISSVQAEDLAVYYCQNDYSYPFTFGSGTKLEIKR	0.584
chim mAB279 (antibody, V domains shown) VH: QVQLQQSGAELARPGASVKLSCKASGYTFTDYYINWVKQRTGQGLEWIGEIYPGSGNTYYNEKFKGKATLTADKSSSTAYMQLSSLTSEDSAVYFCARSYGAFDYWGQGTTLTVSS VL: DIVMTQSQKFMSTSVGDRVSITCKASQNVRTAVAWYQQKPGQSPKALIYLASNRHTGVPDRFTGSGSGTDFTLTISNVQSEDLADYFCLQHWNYPLTFGGGTKLEIKR	60
chim mAB62 (antibody, V domains shown) VH: QVQLQQSGAELMKPGASVKISCKATGYTFSSYWIEWVKQRPGHGLEWIGEILPGSGSTNYNEKFKGKATFTADTSSNTAYMQLSSLTSEDSAVYYCARYDYPWFAYWGQGTLVTVSA VL: QIVLTQSPAIMSASPGEKVTITCSASSSVSYMHWFQQKPGTSPKLWIYSTSNLASGVPARFSGSGSGTSYSLTISRMEAEDAATYYCQQRSSYPPTFGGGTKLEIKR	32.3
